B1: Glucocorticoid receptor, residues 419 to 494; numbered along this chain, P04150 (parent)
chain: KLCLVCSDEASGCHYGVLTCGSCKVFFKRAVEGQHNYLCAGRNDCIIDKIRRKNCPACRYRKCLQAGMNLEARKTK

Variants of: B1
measurement description: abundance fitness (aPCA) (normalised: wild type 0, dead -1); higher = more abundant; growth selection in yeast, the domain comes from the species named
test parameters: Homo sapiens
I would appreciate it if you labelled entries Y when abundance fitness is -0.3 or higher, otherwise N.

Tell me whether abundance fitness is at least -0.3 here: C58F N

Hi team, for K1S , is the recorded abundance fitness at or above -0.3? Y

Is abundance fitness at least -0.3? Consider C63V N

Can K62A be said to have abundance fitness at or above -0.3? Y

Quick check: does N36Y have abundance fitness greater than or equal to -0.3? Y

Hello, I need to know if A30N has measured abundance fitness not below -0.3. Thanks! Y

Would you say K1R shows abundance fitness at minimum -0.3? Y

Kindly determine if abundance fitness recorded for K53P is above or exactly -0.3. Y

Record C20V ; criterion: abundance fitness no lower than -0.3. Met? N

Could you please find out whether G16A has abundance fitness that meets -0.3 or exceeds it? Y

Can L2M be said to have abundance fitness at or above -0.3? Y

Test whether the variant A72H records abundance fitness of -0.3 or higher. Y

Quick check: does N43R have abundance fitness greater than or equal to -0.3? Y

Does the variant H35M have recorded abundance fitness that is -0.3 or more? Y

Kindly determine if abundance fitness recorded for D48G is above or exactly -0.3. N

Does the variant C58V have recorded abundance fitness that is -0.3 or more? N

Can V5R be said to have abundance fitness at or above -0.3? N

Given T19H , state whether its abundance fitness is at least -0.3. N

Could you verify whether the entry K62V shows abundance fitness of no less than -0.3? Y

Please check the record V17K and state if its abundance fitness is at or above -0.3. Y

For this variant, is measured abundance fitness -0.3 or higher? N69F Y
